Tested on: A549 NSCLC
Experiment: NCI tumour cell line growth inhibition, 48 h
reported metric: TGI

• CN1CCN(C(=O)c2ccc(NC(=O)Nc3ccc(N(C)c4ccnc(Nc5ccc(CS(C)(=O)=O)cc5)n4)cc3)cc2)CC1 = > 25 µM
• COC(=O)c1cc(NC2OCC(OC(C)=O)C(OC(C)=O)C2OC(C)=O)nc(SC)c1C(=O)OC (stereo not given) = > 100 µM
• COC(=O)c1ccccc1C1CN=NC12Cc1c(C)cc(C)cc1C2=O (stereo not given) = > 100 µM
• O=C(O)/C(Cl)=C(\Cl)Nc1cccc(C(F)(F)F)c1 = > 100 µM
• COC(=O)c1cc(Br)c(C(=O)C(Cl)(Cl)Cl)[nH]1 = > 100 µM
• Cc1ccc2c(c1)C(=O)/C(=C1/CCc3ccc(C)cc31)C2 = > 100 µM
• O=S(=O)(O)c1cc(S(=O)(=O)O)c2c(N=Nc3cccc4ccccc34)c(O)ccc2c1 = > 100 µM
• N#CN=Nc1cc(Cl)c(N=NC#N)cc1Cl = > 100 µM
• CC(C#N)c1cn(S(=O)(=O)c2ccccc2)c2ccccc12 (stereo not given) = > 100 µM
• CN(C)CCOc1cc2c(c3ccccc13)-c1ccccc1C2=O = 22 µM

---

System: SK-OV-3 ovarian
Assay: NCI tumour cell line growth inhibition, 48 h
Documented TGI across a set of compounds
reported metric: TGI

• CC1=CC(=O)C(C)(C2=NC(C)(C)CO2)c2ccccc21 (stereo unspecified) = > 100 µM
• CCCCOC(=O)CN1C(=O)c2ccccc2C1=O = > 100 µM
• CNC(=O)Nc1cc2c3c(c1)CCCN3CCC2 = > 10 µM
• C#C[C@@]1(O)[C@@H](CO)O[C@@H](n2cc(Cl)c3c(N)ncnc32)[C@@H]1O = 0.517 µM
• COc1ccccc1/C=C/C(=O)c1sc(-c2cccnc2)nc1C = > 100 µM
• CC1=C(C)SC(=C2Sc3c(n(C)c(=O)[nH]c3=O)S2)S1 = > 100 µM
• N=c1ccn2c(n1)OC1C(OP(=O)(O)O)C(CO)OC12 (stereo unspecified) = > 100 µM
• CCOC(=O)C12CCCC1(O)N(NC(=O)c1cccc(Cl)c1)C(C)=C2C(=O)OC (stereo unspecified) = > 100 µM
• C=C(C)C(=O)NC(N)=NC#N = 308 µM
• CN1CCC23c4c5ccc(O)c4OC2C(=NN=C2CCC4(O)C6Cc7ccc(O)c8c7C4(CCN6C)C2O8)CCC3(O)C1C5 (stereo unspecified) = > 100 µM
• OCCN1CCN(CCO)Cc2ccccc2OCCOc2ccccc2C1 = > 100 µM
• COC(=O)c1cc(C#N)[nH]c1-c1ccsc1 = > 100 µM
• CCN1C(=O)N(CC)C2C1NN=c1s/c(=C3\C(=O)N(CCC(C)C)c4ccccc43)c(=O)n12 (stereo unspecified) = 18 µM
• COC1Cc2c(C)c(OC(C)=O)c3cccnc3c2O1 (stereo unspecified) = > 100 µM
• O=c1c2cccnc2[nH]c2ccc3scnc3c12 = > 10 µM
• C=CCNC1=C2C[C@@H](C)C[C@@H](OC)[C@H](OC(=O)CN(C)C)[C@H](C)/C=C(\C)[C@@H](OC(N)=O)[C@H](OC)/C=C\C=C(/C)C(=O)NC(=CC1=O)C2=O = 20 µM
• CC(N)Cc1cccc(C(F)(F)F)c1 (stereo unspecified) = > 100 µM
• CC1OC(OC2C(OC(=O)[C@]34CCC(C)(C)C[C@H]3C3=CC[C@@H]5[C@@]6(C)CC[C@H](OC7OC(C(=O)O)C(O)C(O)C7O)C(C)(C)[C@@H]6CC[C@@]5(C)[C@]3(C)CC4)OCC(O)C2O)C(O)C(O)C1OC1OCC(O)C(O)C1O (stereo partly specified) = > 100 µM
• COc1ccc(C(=S)c2cc(OC)c(OC)c(OC)c2)cc1OC(=O)CCl = > 100 µM
• CO/C(=N/N1CC1C(F)(F)F)c1ccncc1 (stereo unspecified) = > 100 µM
• Cc1[nH]c2c(C)ccc(C)c2c1CC(=O)O = > 100 µM

Source listed as PubChem BioAssay (NCI).
